Test system: MERS WT
experimentalProtocol: microbe, parasite or virus in culture
Format: cell-based
setupConditions: Middle East respiratory syndrome-related coronavirus, read-out: MERS WT (μM)
*1 amine or outer side, *2 acyl side, *3 side chain or, on linkers, in order; H or OH if unused. Where a SMILES comes first, the peptide text is derived from it. [ ]: non-standard residue; d: D form. The star is where a group is joined. 2Nal = N[CH](Cc1ccc2ccccc2c1)C(=O)O; X1 = CCC(C)C(N[*:1])C(=O)C(=O)[*:2]; Cbz = O=C(OCc1ccccc1)*
outcomeMeasure: IC50

Observe how each entry below is paired with its result.
INSERT INTO results (molecule, testedsystem, measuredvalue) VALUES
  ('CCC(C)C(NC(=O)C(CC(C)C)NC(=O)C(Cc1ccccc1)NC(=O)OCc1ccccc1)C(=O)C(=O)NCC(=O)NC(Cc1ccc2ccccc2c1)C(N)=O (stereo not drawn) [PHELIX270] (Cbz-FL[X1]G[2Nal]-NH2; configuration not given here)', 'MERS WT', '> 30 µM'),
  ('CC(C)CC(NC(=O)Cc1ccc(-c2ccccc2)cc1)C(=O)NC(C)C(=O)C(=O)NCC(=O)NC(Cc1ccc2ccccc2c1)C(N)=O (stereo not drawn)', 'MERS WT', '> 30 µM');

Next up:
q: Field request: IC50 | item: CC(C)CC(NC(=O)OCc1ccccc1)C(=O)NC(C)C(=O)C(=O)NC(Cc1ccncc1)C(N)=O (stereo not drawn)
a: > 10 µM

###

Test system: MERS WT
experimentalProtocol: microbe, parasite or virus in culture
Assay type: cell-based
setupConditions: Middle East respiratory syndrome-related coronavirus, read-out: MERS WT (μM)
outcomeMeasure: IC50

INSERT INTO measurements (compound, testedsystem, measuredvalue) VALUES
  ('CC(NC(=O)C(Cc1cccc(C(F)(F)F)c1)NC(=O)Cc1ccccc1)C(=O)C(=O)NC(Cc1ccccc1)C(=O)NC(C)(C)C(N)=O (stereo not shown) [PHELIX209]', 'MERS WT', '> 10 µM'),
  ('CC(NC(=O)[C@H](Cc1ccccn1)NC(=O)Cc1ccccc1)C(=O)C(=O)N[C@@H](Cc1ccccc1)C(=O)N[C@@H](Cc1ccccc1)C(N)=O (stereo partly shown) [PHELIX219]', 'MERS WT', '> 10 µM'),
  ('CCC(C)C(NC(=O)C(CC(C)C)NC(=O)C(Cc1ccccc1)NC(=O)OCc1ccccc1)C(=O)C(=O)NC(CCCNC(=N)N)C(N)=O (stereo not shown) [PHELIX268]', 'MERS WT', '> 30 µM'),
  ('CC(C)CC(NC(=O)OCc1ccccc1)C(=O)NC(C)C(=O)C(=O)N1CCC(C(=O)NC(Cc2ccccc2)C(N)=O)CC1 (stereo not shown) [PHELIX186]', 'MERS WT', '> 10 µM'),
  ('CC(NC(=O)C(Cc1cccnc1)NC(=O)Cc1ccccc1)C(=O)C(=O)NC(Cc1ccccc1)C(=O)NC(C)(C)C(N)=O (stereo not shown) [PHELIX211]', 'MERS WT', '> 10 µM'),
  ('C=CCOC(=O)NCCCCC(NC(=O)C(=O)C(NC(=O)C(CC(C)C)NC(=O)C(Cc1ccccc1)NC(=O)OCc1ccccc1)C(C)CC)C(N)=O (stereo not shown) [PHELIX269]', 'MERS WT', '> 30 µM');

Proceed to the following item.
q: Param item = CC(NC(=O)C(Cc1ccccc1)NC(=O)c1ccccc1F)C(=O)C(=O)NC(Cc1ccccc1)C(=O)NC(C)(C)C(N)=O (stereo not shown) [PHELIX224] ; retrieve measured IC50.
a: > 10 µM

###

Test system: MERS WT
experimentalProtocol: microbe, parasite or virus in culture
Assay type: cell-based
setupConditions: Middle East respiratory syndrome-related coronavirus, read-out: MERS WT (μM)
*1 amine or outer side, *2 acyl side, *3 side chain or, on linkers, in order; H or OH if unused. Where a SMILES comes first, the peptide text is derived from it. [ ]: non-standard residue; d: D form. The star is where a group is joined. 2Nal = N[CH](Cc1ccc2ccccc2c1)C(=O)O; X2 = C=CCOCC(N[*:1])C(=O)C(=O)[*:2]; Ser(allyl) = C=CCOC[CH](N)C(=O)O; PhAc = O=C(Cc1ccccc1)*
outcomeMeasure: IC50

Recorded results for 2 molecules are shown here.
INSERT INTO results (molecule, measuredvalue) VALUES
  ('CC(NC(=O)C(Cc1ccccc1)NC(=O)Cc1ccccc1)C(=O)C(=O)NC(Cc1ccccc1)C(=O)NC(C)(C)C(N)=O (stereo not drawn)', '> 30 µM'),
  ('C=CCOCC(NC(=O)Cc1ccccc1)C(=O)NC(CC(C)C)C(=O)NC(COCC=C)C(=O)C(=O)NCC(=O)NC(Cc1ccc2ccccc2c1)C(N)=O (stereo not drawn) [PHELIX200] (PhAc-[Ser(allyl)]L[X2]G[2Nal]-NH2; configuration not given here)', '> 10 µM');

Here is another molecule to look at.
q: Entry CC(C)CC(NC(=O)C(=O)C(C)NC(=O)C(Cc1ccccc1)NC(=O)Cc1ccccc1)C(=O)NC(C)(C)C(N)=O (stereo not drawn) : reported IC50 = ?
a: > 10 µM

###

Read-out record for Cathepsin L (Homo sapiens, UniProt P07711): pKi
Numbers only, as −log10 of the molar value.

// worked examples, pKi included
INSERT INTO measurements (compound, testedsystem, outcomemeasure, measuredvalue) VALUES
  ('CCC(C)C(NC(=O)C(=O)C(C)NC(=O)C(Cc1cccc(C)c1)NC(=O)Cc1ccccc1)C(=O)NC(C)(C)C(=O)O (stereo not shown) [PHELIX175]', 'Cathepsin L (Homo sapiens, UniProt P07711)', 'pKi', 6.97),
  ('CCC(C)C(NC(=O)C(Cc1c[nH]cn1)NC(=O)Cc1ccccc1)C(=O)C(=O)NCC(=O)NC(Cc1ccc2ccccc2c1)C(N)=O (stereo not shown) [PHELIX302]', 'Cathepsin L (Homo sapiens, UniProt P07711)', 'pKi', 6.41),
  ('CCC(C)C(NC(=O)OCc1ccccc1)C(=O)C(=O)NCC(=O)NC(Cc1ccc2ccccc2c1)C(N)=O (stereo not shown) [PHELIX325]', 'Cathepsin L (Homo sapiens, UniProt P07711)', 'pKi', 6.62),
  ('CC(C)C[C@H](NC(=O)C(c1ccccc1)c1ccccc1)C(=O)NC(C)C(=O)C(=O)NCC(=O)N[C@@H](Cc1ccc2ccccc2c1)C(N)=O (stereo partly shown) [PHELIX251]', 'Cathepsin L (Homo sapiens, UniProt P07711)', 'pKi', 8.85),
  ('CC(NC(=O)C(Cc1ccccc1)NC(=O)Cc1ccccc1)C(=O)C(=O)NC(Cc1ccccc1)C(=O)NC(C)(C)C(=O)NCCc1ccccc1 (stereo not shown) [PHELIX230]', 'Cathepsin L (Homo sapiens, UniProt P07711)', 'pKi', 8.17);

Report pKi for every entry below.
1. CC(NC(=O)C(Cc1ccccc1)NC(=O)Cc1ccccc1)C(=O)C(=O)NC(CC1CC1)C(=O)NC(Cc1ccc(-c2ccccc2)cc1)C(N)=O (stereo not shown) [PHELIX260]
2. CC(NC(=O)[C@H](Cc1ccccc1)NC(=O)C(c1ccccc1)c1ccccc1)C(=O)C(=O)N[C@@H](Cc1ccccc1)C(=O)NC(C)(C)C(N)=O (stereo partly shown) [PHELIX237]
3. CCC(C)C(NC(=O)C(CC(C)C)NC(=O)OCc1ccccc1)C(=O)C(=O)NC(Cc1cccc(F)c1)C(N)=O (stereo not shown) [PHELIX359]
4. CC(NC(=O)C(Cc1ccccc1)NC(=O)Cc1cccc(F)c1)C(=O)C(=O)NC(Cc1ccccc1)C(=O)NC(C)(C)C(N)=O (stereo not shown) [PHELIX227]

a:
1: 9.57; 2: 8.47; 3: 9.14; 4: 7.23

q: Which pKi value belongs to CC(NC(=O)C(Cc1ccccc1)NC(=O)c1cccc(F)c1)C(=O)C(=O)NC(Cc1ccccc1)C(=O)NC(C)(C)C(N)=O (stereo not shown) [PHELIX222] ?
a: 7.60

###

testedSystem: Cathepsin B (Homo sapiens)
experimentalProtocol: Cathepsin B enzyme assay
setupConditions: Cat B (μM), Ki by Morrison equation; pH 6.0, substrate Z-Phe-Arg-Amc
Give Ki for every item shown.
Give bare numbers, in µM.

Some molecules with known Ki results, for comparison:
INSERT INTO assay_data (molecule, measuredvalue) VALUES
  ('CC[C@H](C)[C@H](NC(=O)C(=O)C(C)(C)NC(=O)[C@H](Cc1ccccc1)NC(=O)Cc1ccccc1)C(=O)NC(C)(C)C(=O)O', 111),
  ('CCC(C)C(NC(=O)C(Cc1ccccc1)NC(=O)Cc1ccccc1)C(=O)C(=O)NC(Cc1ccccc1)C(=O)NC(C)(C)C(N)=O (centres unmarked)', 0.223),
  ('CC[C@H](C)[C@H](NC(=O)C(=O)C(Cc1ccccc1)NC(=O)C(Cc1ccccc1)NC(=O)Cc1ccccc1)C(=O)N1CSCC1C(=O)O (some centres unmarked)', 0.157),
  ('CC(NC(=O)C(Cc1ccccc1)NC(=O)Cc1ccccc1)C(=O)C(=O)NC(Cc1ccccc1)C(=O)NC(C)(C)C(N)=O (centres unmarked)', 0.349),
  ('CCC(C)C(NC(=O)C(CC(C)C)NC(=O)OCc1ccccc1)C(=O)C(=O)NCC(=O)N(C)C(Cc1ccccc1)C(N)=O (centres unmarked)', 0.456);

I would be grateful if you could provide Ki for each of the following entries.
1. CC(NC(=O)[C@H](Cc1ccccc1)NC(=O)C(c1ccccc1)c1ccccc1)C(=O)C(=O)N[C@@H](Cc1ccccc1)C(=O)NC(C)(C)C(N)=O (some centres unmarked)
2. CC[C@H](C)[C@H](NC(=O)C(=O)C(C)NC(=O)Cc1ccccc1)C(=O)N1CCC[C@H]1C(=O)O (some centres unmarked)

a:
1: 0.0211; 2: 27.8
